Data provenance: paper PMC6212790

Target: GST-Rok-C97-191 (Bacillus subtilis subsp. subtilis str. …, UniProt O34857 97-191)
Sequence: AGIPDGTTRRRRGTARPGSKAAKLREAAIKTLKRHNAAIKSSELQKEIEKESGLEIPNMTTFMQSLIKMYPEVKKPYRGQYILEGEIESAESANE
Assay: protein binding microarray; high values mean tight binding
Settings: protein: recombinant; tags: GST (pTH5325, pDEST15-Magic modified); dsDNA, one strand shown
The full ranking holds about 33,000 sequences; the median of “e-score” is about -0.038, and the highest 2% start at about 0.33. The list comes from a sample in which the highest values are over-represented; it also holds close analogues and randomly drawn sequences.
observable: binding signal (E-score)
Give the value in E-score but do not write E-score after it.

Exercise: Record request: binding signal value, item ACAAATAT
Key: 0.337

Exercise: Record request: binding signal value, item AGAGGCAA
Key: -0.195

Exercise: Record request: binding signal value, item GCGGGGAA
Key: -0.189

Exercise: Record request: binding signal value, item GATAAAGC
Key: -0.0584

Exercise: Record request: binding signal value, item AGTGGATG
Key: -0.131

Exercise: Record request: binding signal value, item ACACTAGA
Key: 0.179

Exercise: Record request: binding signal value, item AGCTCGTC
Key: -0.149

Exercise: Record request: binding signal value, item AATTGCGG
Key: 0.0377

Exercise: Record request: binding signal value, item AAACTAGA
Key: 0.354

Exercise: Record request: binding signal value, item ATAAATAA
Key: 0.269

Exercise: Record request: binding signal value, item CAACTAGA
Key: 0.255

====

Biological target: GST-Rok-C97-191 (Bacillus subtilis subsp. subtilis str. …, UniProt O34857 97-191)
Sequence: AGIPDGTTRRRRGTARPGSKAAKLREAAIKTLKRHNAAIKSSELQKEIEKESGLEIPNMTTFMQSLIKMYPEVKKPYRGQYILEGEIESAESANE
Experiment: protein binding microarray; Rok is a gene silencer of Bacillus subtilis; high values mean tight binding
Conditions: protein: recombinant; tags: GST (pTH5325, pDEST15-Magic modified); dsDNA, one strand shown
Whole data set: some 33,000 sequences, median “e-score” near -0.038, cut for the highest 2% near 0.33. This is one part of a sample in which the highest values are shown more often than they occur.
observable: binding signal (E-score)
Give the value in E-score but do not write E-score after it.

Exercise: Record request: binding signal value, item ACACTACG
Key: -0.0248

Exercise: Record request: binding signal value, item ACTTTCGC
Key: 0.0461

Exercise: Record request: binding signal value, item CTATGGTA
Key: 0.211

Exercise: Record request: binding signal value, item ACCTGTGC
Key: -0.159

Exercise: Record request: binding signal value, item ATATGTTA
Key: 0.331

Exercise: Record request: binding signal value, item AAACTACG
Key: 0.387

Exercise: Record request: binding signal value, item AATATTAT
Key: 0.21

Exercise: Record request: binding signal value, item CTCCATAA
Key: -0.175

Exercise: Record request: binding signal value, item CCGATATC
Key: 0.0718

Exercise: Record request: binding signal value, item AGATATTA
Key: 0.356

Exercise: Record request: binding signal value, item AGCGGCCG
Key: -0.112

Exercise: Record request: binding signal value, item GTAGCTGA
Key: 0.279

Exercise: Record request: binding signal value, item CAACTACA
Key: 0.234

Exercise: Record request: binding signal value, item GAATGGTC
Key: -0.121

Exercise: Record request: binding signal value, item CGAATCAA
Key: -0.196

Exercise: Record request: binding signal value, item TACGGCCA
Key: -0.0766

Exercise: Record request: binding signal value, item CTCTATTC
Key: -0.103

Exercise: Record request: binding signal value, item AATATGTG
Key: 0.199

Exercise: Record request: binding signal value, item AAAATATT
Key: 0.327

Exercise: Record request: binding signal value, item ATATGGTG
Key: 0.159

Exercise: Record request: binding signal value, item AATATATT
Key: 0.417

Exercise: Record request: binding signal value, item AATGACAT
Key: 0.115

Exercise: Record request: binding signal value, item ATATGTTC
Key: 0.238

Exercise: Record request: binding signal value, item ACACTACT
Key: 0.18

Exercise: Record request: binding signal value, item ACAGCCGA
Key: -0.00523

Exercise: Record request: binding signal value, item CCTTATTA
Key: 0.0213

Exercise: Record request: binding signal value, item CAAATGGC
Key: 0.0931

Exercise: Record request: binding signal value, item GATATCAA
Key: 0.158

Exercise: Record request: binding signal value, item CCTATATC
Key: 0.0424

Exercise: Record request: binding signal value, item AATATCTC
Key: 0.28

Exercise: Record request: binding signal value, item CGTATATC
Key: 0.316

Exercise: Record request: binding signal value, item AATATATG
Key: 0.337

Exercise: Record request: binding signal value, item CTATATTC
Key: 0.274

Exercise: Record request: binding signal value, item AATATCTG
Key: 0.2

Exercise: Record request: binding signal value, item AGCGCCCC
Key: -0.198

Exercise: Record request: binding signal value, item ACCATAAC
Key: 0.0976

Exercise: Record request: binding signal value, item AATACGCT
Key: -0.133

Exercise: Record request: binding signal value, item GTGTATTA
Key: 0.11

Exercise: Record request: binding signal value, item CTGTCCAA
Key: -0.154

Exercise: Record request: binding signal value, item ACCAACAT
Key: 0.157

Exercise: Record request: binding signal value, item AGATATTG
Key: 0.186

Exercise: Record request: binding signal value, item AATATATA
Key: 0.462

Exercise: Record request: binding signal value, item GTGACCGA
Key: 0.048

Exercise: Record request: binding signal value, item CATATCTA
Key: 0.34

Exercise: Record request: binding signal value, item CTATGTTA
Key: 0.256

Exercise: Record request: binding signal value, item TAATGGTA
Key: 0.325
